# TEST SYSTEM: human CLDN18.2 (human)
# ASSAY METHOD TEXT: cell-based or functional assay
OBSERVABLE: ADCC EC50, PBMC effector cells, KATOIII target cells (nM)

BINDER: 15F9 (antibody, human IgG1, kappa, V domains shown) VH: QVQLVQSGSELKKPGASVKVSCKASGYTFTNYGINWVRQAPGQGLEWMGWINPNTGETTYAEEFKGRFVFSLDTSVSTAYLQISSLKAEDTAVYFCARLYYGNRFDSWGQGTLVTVSS VL: DIVMTQSPDSLAVSLGERATINCKSSQSLLNSGNQRNYLTWYQQKPGQPPKLLIYWASTRESGVPDRFSGSGSGTDFTLTISSLQAEDVAVYYCQNAYYYPLTFGGGTKVEIKR
UNIT SYMBOL: nM
RESULT: 0.03

BINDER: humanized antibody hz28G3-1.3 (antibody, human IgG1, kappa, V domains shown) VH: QVQLVQSGAEVKKPGASVKVSCKTSGYSFTDYLMLWVRQAHGQSLEWMGNINPYYGRTTYALKFKGRVTMTVDRSTSTVYMELSSLRSEDTAVYYCARDGYSLRNAMDYWGQGTLVTVSS VL: DIVMTQSPDSLAVSLGERATINCKSSQSLFNSGNQKNYLAWYQQKPGQPPKLLIYGASTRESGVPDRFSGSGSGTDFTLTISSLQAEDVAVYYCQNAHSYPYTFGQGTKVEIKR
UNIT SYMBOL: nM
RESULT: 1.03

BINDER: chimeric antibody xi28G3 (antibody, human IgG1, kappa, V domains shown, Mouse variable regions on human IgG1/kappa; defucosylated, expressed in FUT8-knockout CHO-S cells; also called chimeric 28G3) VH: EIQLQQTGPELVKPGASVTISCKTSGYSFTDYLMLWVKQSHGKSLEWIGNINPYYGRTTYNLKFKGKATLTVDRSSSTAYMQLNSLTSEDSAVYYCARDGYSLRNAMDYWGQGTSVTVSS VL: DIVMTQSPYSLSVSTGEKVTMSCKSSQSLFNSGNQKNYLAWYQQKPGQPPKLLIYGASTRESGVPDRFTGSGSGTDFTLTISSVQAEDLALYYCQNAHSYPYTFGGGTKLEIKR
UNIT SYMBOL: nM
RESULT: 0.82

BINDER: humanized antibody hz40F6-1.4 (antibody, human IgG1, kappa, V domains shown) VH: QVQLVESGGGVVQPGRSLRLSCTVSGFTLTSYGVYWVRQAPGKGLEWVAVVWAGGNTNYNSALKGRFTISKDNSKSTLYLQMNSLRAEDTAVYYCARDRGRLLAMDYWGQGTLVTVSS VL: DIVMTQSPDSLAVSLGERATINCKSSQSLLNSGNQKNYLAWYQQKPGQPPKLLIYGASTRESGVPDRFTGSGSGTDFTLTISSLQAEDVAVYYCQNDHFFPFTFGQGTKVEIKR
UNIT SYMBOL: nM
RESULT: 0.1
